From: ChEMBL document CHEMBL3853327

Test: MRT (0 to t) in Sprague-Dawley rat plasma at 16 mg/kg administered through oral gavage measured at 5 mins to 24 hrs post dosing by LC/MS analysis
Format: ADME, organism-based
propertyMeasured: MRT last (h)
Output spec: scalar in h, unitless text.

Q) Can you share its MRT last? I mean this molecule: Cc1cc(C#N)cc(C)c1Oc1nc(NC2CCN(Cc3ccc(S(N)(=O)=O)cc3)CC2)nc2ccsc12
A) 3.25

* * *

Tested on: Human immunodeficiency virus 1
Assay: Antiviral activity against HIV1 3B harboring reverse transcriptase K103N mutant infected in human MT4 cells assessed as protection against virus induced cytotoxicity after 5 days by MTT assay
Assay type: functional, cell-based
Conditions: Human immunodeficiency virus 1, 3B, MT4, 120 h
Checkbox rule: EC50 lower than 9 nM = criterion met; EC50 not lower than 9 nM = criterion not met.

Worked examples, 2 compounds total:
| chemicalSmiles | classAssignment |
| --- | --- |
| Cc1cc(C#N)cc(C)c1Oc1nc(NC2CCN(Cc3cccc(C(N)=O)c3)CC2)nc2ccsc12 | criterion not met |
| Cc1cc(C)c(Oc2nc(NC3CCN(Cc4ccncc4)CC3)nc3ccsc23)c(C)c1 | criterion met |

Q) Determine whether this compound shows EC50 lower than 9 nM (ties excluded): O=C1Nc2ccc(Cl)cc2[C@@](C#CC2CC2)(C(F)(F)F)O1
A) criterion not met

Q) Determine whether this compound shows EC50 lower than 9 nM (ties excluded): Cc1cc(C)c(Oc2nc(NC3CCN(Cc4ccc(S(C)(=O)=O)cc4)CC3)nc3ccsc23)c(C)c1
A) criterion met

Q) Determine whether this compound shows EC50 lower than 9 nM (ties excluded): Cc1cc(C#N)cc(C)c1Oc1nc(NC2CCN(Cc3ccncc3)CC2)nc2ccsc12
A) criterion not met

Q) Determine whether this compound shows EC50 lower than 9 nM (ties excluded): Cc1cc(C)c(Oc2nc(NC3CCN(Cc4ccc(C(N)=O)cc4)CC3)nc3ccsc23)c(C)c1
A) criterion met

Q) Determine whether this compound shows EC50 lower than 9 nM (ties excluded): Cc1cc(C)c(Oc2nc(NC3CCN(Cc4cccc(F)c4)CC3)nc3ccsc23)c(C)c1
A) criterion not met

Q) Determine whether this compound shows EC50 lower than 9 nM (ties excluded): COC(=O)c1ccc(CN2CCC(Nc3nc(Oc4c(C)cc(C)cc4C)c4sccc4n3)CC2)cc1
A) criterion not met

Q) Determine whether this compound shows EC50 lower than 9 nM (ties excluded): Cc1cc(C#N)cc(C)c1Oc1nc(NC2CCN(Cc3ccc(F)cc3)CC2)nc2ccsc12
A) criterion met
